- measured-target: panel of 60 human kinases (Homo sapiens, UniProt Q13470)
- Construct: purchased Reaction Biology Corp
- Sequence (Q13470 whole entry): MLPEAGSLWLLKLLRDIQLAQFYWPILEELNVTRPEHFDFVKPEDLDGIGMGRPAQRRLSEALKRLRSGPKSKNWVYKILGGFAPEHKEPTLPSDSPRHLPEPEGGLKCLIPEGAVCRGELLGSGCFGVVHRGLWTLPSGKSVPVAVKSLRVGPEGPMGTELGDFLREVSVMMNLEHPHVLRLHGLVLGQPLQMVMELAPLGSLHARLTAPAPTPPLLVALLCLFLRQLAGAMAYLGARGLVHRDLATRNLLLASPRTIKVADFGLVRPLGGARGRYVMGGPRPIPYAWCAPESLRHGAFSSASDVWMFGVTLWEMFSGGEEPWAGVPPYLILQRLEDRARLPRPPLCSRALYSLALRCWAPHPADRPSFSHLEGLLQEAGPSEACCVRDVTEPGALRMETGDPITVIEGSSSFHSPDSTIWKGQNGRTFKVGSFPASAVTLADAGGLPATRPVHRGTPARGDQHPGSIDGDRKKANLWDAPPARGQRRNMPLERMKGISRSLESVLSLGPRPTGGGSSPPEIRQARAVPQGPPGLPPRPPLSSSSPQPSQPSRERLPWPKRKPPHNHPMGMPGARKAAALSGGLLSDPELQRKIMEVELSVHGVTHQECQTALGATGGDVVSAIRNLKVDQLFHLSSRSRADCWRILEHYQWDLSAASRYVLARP
- protocol: Radiolabeled ATP kinase assay, panel of 60 kinases (Table S5)
- Assay type: biochemical
- run-conditions: TNK1; 0.1 μM; 10 μM ATP; read-out: % Enzyme Activity (relative to DSMO controls)
Answer each item with its documented remaining activity at 0.1 µM.

Given item CN1CCN(Cc2ccc(-c3cnc4[nH]cc(-c5ccncc5)c4c3)cc2)CC1 [Compound 7n] , the value recorded as its remaining activity at 0.1 µM is 87.8%

Given item CN1CCN(Cc2ccc(-c3cnc4[nH]cc(-c5ccc6c(c5)OCCO6)c4c3)cc2)CC1 [Compound 7d] , the value recorded as its remaining activity at 0.1 µM is 44.3%

Given item Cc1nn(C)c(C)c1-c1c[nH]c2ncc(-c3ccc(CN4CCN(C)CC4)cc3)cc12 [Compound 7ai] , the value recorded as its remaining activity at 0.1 µM is 63.6%

Given item CN1CCN(Cc2ccc(-c3cnc4[nH]cc(-c5cnn(Cc6ccccc6)c5)c4c3)cc2)CC1 [Compound 7ah] , the value recorded as its remaining activity at 0.1 µM is 37.8%

Given item CN1CCN(Cc2ccc(-c3cnc4[nH]cc(-c5ccc6[nH]ccc6c5)c4c3)cc2)CC1 [Compound 1, reference compound] , the value recorded as its remaining activity at 0.1 µM is 28.8%

Given item CN1CCN(Cc2ccc(-c3cnc4[nH]cc(-c5ccoc5)c4c3)cc2)CC1 [Compound 7w] , the value recorded as its remaining activity at 0.1 µM is 73.2%

Given item CN1CCN(Cc2ccc(-c3cnc4[nH]cc(-c5ccccc5Cl)c4c3)cc2)CC1 [Compound 7as] , the value recorded as its remaining activity at 0.1 µM is 33.9%

Given item CN1CCN(Cc2ccc(-c3cnc4[nH]cc(-c5cccc(Cl)c5)c4c3)cc2)CC1 [Compound 7ad] , the value recorded as its remaining activity at 0.1 µM is 53.5%

Given item COc1ccccc1-c1c[nH]c2ncc(-c3ccc(CN4CCN(C)CC4)cc3)cc12 [Compound 7at] , the value recorded as its remaining activity at 0.1 µM is 38.4%

* * *

- Tested on: human ES motor neurons carrying the ALS-causing SOD1^A4V mutation
- protocol: cells
- Assay type: cell-based
- run-conditions: Homo sapiens, Neuron, 72 h, CPA (33 μM) + compound (1 μM); read-out: Motor Neuron Survival, % untreated
measure-name: viability at 1 µM (%)
Give just the numeric value; % need not be written.

Given item CN1CC2CCC(C1)N2Cc1ccc(-c2cnc3[nH]cc(-c4ccc5[nH]ccc5c4)c3c2)cc1 [Compound 12c] , the value recorded as its viability at 1 µM is 43.7

Given item CC(=O)c1ccc(-c2c[nH]c3ncc(-c4ccc(CN5CCN(C)CC5)cc4)cc23)cc1 , the value recorded as its viability at 1 µM is 78.1

Given item CN1CCN(Cc2ccc(-c3cnc4[nH]cc(-c5ccc6[nH]ncc6c5)c4c3)cc2)CC1 , the value recorded as its viability at 1 µM is 115

Given item CNC(=O)Nc1ccc(-c2c[nH]c3ncc(-c4ccc(CN5CCN(C)CC5)cc4)cc23)cc1 , the value recorded as its viability at 1 µM is 80

Given item CN1CCN(Cc2ccc(-c3cnc4[nH]cc(-c5ccc(F)c(C(=O)O)c5)c4c3)cc2)CC1 , the value recorded as its viability at 1 µM is 7.82

Given item CN1CCN(Cc2ccc(-c3cnc4[nH]cc(-c5ccccc5Cl)c4c3)cc2)CC1 , the value recorded as its viability at 1 µM is 80.8

Given item CN1CCN(Cc2ccc(-c3cnc4[nH]cc(-c5cccc(N)c5)c4c3)cc2)CC1 , the value recorded as its viability at 1 µM is 106

Given item CN1CCN(Cc2ccc(-c3cnc4[nH]cc(-c5csc6ccccc56)c4c3)cc2)CC1 , the value recorded as its viability at 1 µM is 68.3

Given item CN1CCN(Cc2ccc(-c3cnc4[nH]cc(-c5cnc(N)nc5)c4c3)cc2)CC1 , the value recorded as its viability at 1 µM is 71

Given item CN1CCN(Cc2ccc(-c3cnc4[nH]cc(-c5ccc(N)nc5)c4c3)cc2)CC1 , the value recorded as its viability at 1 µM is 76.1

Given item Cc1cc(-c2c[nH]c3ncc(-c4ccc(CN5CCN(C)CC5)cc4)cc23)cnc1N , the value recorded as its viability at 1 µM is 106

Given item CN1CCN(Cc2ccc(-c3cnc4[nH]cc(-c5ccc(OC(F)(F)F)cc5)c4c3)cc2)CC1 , the value recorded as its viability at 1 µM is 11.2

Given item CN1CCN(Cc2ccc(-c3cnc4[nH]cc(-c5cnn(Cc6ccccc6)c5)c4c3)cc2)CC1 , the value recorded as its viability at 1 µM is 67.1

Given item CN1CCN(Cc2ccc(-c3cnc4[nH]cc(-c5cccc([N+](=O)[O-])c5)c4c3)cc2)CC1 , the value recorded as its viability at 1 µM is 116

Given item CN1CCN(Cc2ccc(-c3cnc4[nH]cc(-c5ccc(Cl)cc5Cl)c4c3)cc2)CC1 , the value recorded as its viability at 1 µM is 32

Given item CNC(=O)Nc1cccc(-c2c[nH]c3ncc(-c4ccc(CN5CCN(C)CC5)cc4)cc23)c1 , the value recorded as its viability at 1 µM is 78.5

Given item CN1CCN(Cc2ccc(-c3cnc4[nH]cc(-c5ccc6c(c5)OCCO6)c4c3)cc2)CC1 , the value recorded as its viability at 1 µM is 72.9

Given item CN1CCN(Cc2ccc(-c3cnc4[nH]ccc4c3)cc2)CC1 , the value recorded as its viability at 1 µM is 10.3

Given item CN1CCN(Cc2ccc(-c3cnc4[nH]cc(-c5cccc(C(F)(F)F)c5)c4c3)cc2)CC1 , the value recorded as its viability at 1 µM is 60.7

Given item CN1CCN(Cc2ccc(-c3cnc4[nH]cc(-c5ccc(S(C)(=O)=O)nc5)c4c3)cc2)CC1 , the value recorded as its viability at 1 µM is 33

Given item CN1CCN(Cc2ccc(-c3cnc4[nH]cc(-c5ccc(NC(=O)NC6CCCCC6)cc5)c4c3)cc2)CC1 , the value recorded as its viability at 1 µM is 27.5

Given item CN1CCN(Cc2ccc(-c3cnc4[nH]cc(-c5cccc(NC(=O)NCc6ccco6)c5)c4c3)cc2)CC1 , the value recorded as its viability at 1 µM is 4.58

Given item CN1CCN(Cc2ccc(-c3cnc4[nH]cc(-c5ccccc5)c4c3)cc2)CC1 , the value recorded as its viability at 1 µM is 75.9

Given item CN1CCN(Cc2ccc(-c3cnc4[nH]cc(-c5cccc(F)c5)c4c3)cc2)CC1 , the value recorded as its viability at 1 µM is 86.4

Given item CN1CCN(Cc2ccc(-c3cnc4[nH]cc(-c5ccc(C#N)cc5)c4c3)cc2)CC1 , the value recorded as its viability at 1 µM is 49.7

Given item CN1CCN(Cc2ccc(-c3cnc4[nH]cc(-c5cccc(Cl)c5)c4c3)cc2)CC1 , the value recorded as its viability at 1 µM is 87.7

Given item COCCNC(=O)Nc1cccc(-c2c[nH]c3ncc(-c4ccc(CN5CCN(C)CC5)cc4)cc23)c1 , the value recorded as its viability at 1 µM is 22.9

Given item CN1C2CCC1CN(Cc1ccc(-c3cnc4[nH]cc(-c5cccc6[nH]ncc56)c4c3)cc1)C2 [Compound 12d] , the value recorded as its viability at 1 µM is 109

Given item CN1CC2CCC(C1)N2Cc1ccc(-c2cnc3[nH]cc(-c4cccc5[nH]ncc45)c3c2)cc1 [Compound 12e] , the value recorded as its viability at 1 µM is 106

Given item CCOc1ccc(-c2c[nH]c3ncc(-c4ccc(CN5CCN(C)CC5)cc4)cc23)cn1 , the value recorded as its viability at 1 µM is 52.3

Given item CC(C)Oc1ccc(-c2c[nH]c3ncc(-c4ccc(CN5CCN(C)CC5)cc4)cc23)cc1 , the value recorded as its viability at 1 µM is 20.6

Given item CN1CCN(Cc2ccc(-c3cnc4[nH]cc(-c5ccc(N)cc5)c4c3)cc2)CC1 , the value recorded as its viability at 1 µM is 96.1

* * *

- measured-target: panel of 60 human kinases (Homo sapiens, UniProt Q9UQB9)
- Construct: purchased Reaction Biology Corp
- Sequence (Q9UQB9 1-309): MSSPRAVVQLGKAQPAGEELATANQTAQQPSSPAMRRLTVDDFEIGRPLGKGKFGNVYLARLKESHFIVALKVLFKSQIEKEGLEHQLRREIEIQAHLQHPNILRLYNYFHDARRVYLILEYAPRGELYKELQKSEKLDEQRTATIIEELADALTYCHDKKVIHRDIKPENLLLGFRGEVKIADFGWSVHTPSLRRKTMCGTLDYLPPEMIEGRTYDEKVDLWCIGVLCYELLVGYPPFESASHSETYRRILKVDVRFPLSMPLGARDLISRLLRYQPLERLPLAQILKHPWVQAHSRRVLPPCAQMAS
- protocol: Radiolabeled ATP kinase assay, panel of 60 kinases (Table S5)
- Format: biochemical
- run-conditions: Aurora C; 0.1 μM; 10 μM ATP; read-out: % Enzyme Activity (relative to DSMO controls)
measure-name: remaining activity at 0.1 µM (%)
Give just the numeric value; % need not be written.

Given item CN1CCN(Cc2ccc(-c3cnc4[nH]cc(-c5ccccc5Cl)c4c3)cc2)CC1 , the value recorded as its remaining activity at 0.1 µM is 94.2

Given item CN1CCN(Cc2ccc(-c3cnc4[nH]cc(-c5ccncc5)c4c3)cc2)CC1 , the value recorded as its remaining activity at 0.1 µM is 101

Given item CN1CCN(Cc2ccc(-c3cnc4[nH]cc(-c5ccc6[nH]ccc6c5)c4c3)cc2)CC1 [Compound 1, reference compound] , the value recorded as its remaining activity at 0.1 µM is 82.8

Given item CN1CCN(Cc2ccc(-c3cnc4[nH]cc(-c5cccc(Cl)c5)c4c3)cc2)CC1 , the value recorded as its remaining activity at 0.1 µM is 104

Given item CN1CCN(Cc2ccc(-c3cnc4[nH]cc(-c5cnn(Cc6ccccc6)c5)c4c3)cc2)CC1 , the value recorded as its remaining activity at 0.1 µM is 78.5

Given item CN1CCN(Cc2ccc(-c3cnc4[nH]cc(-c5ccoc5)c4c3)cc2)CC1 , the value recorded as its remaining activity at 0.1 µM is 94.3

Given item Cc1nn(C)c(C)c1-c1c[nH]c2ncc(-c3ccc(CN4CCN(C)CC4)cc3)cc12 , the value recorded as its remaining activity at 0.1 µM is 122

Given item CN1CCN(Cc2ccc(-c3cnc4[nH]cc(-c5ccc6c(c5)OCCO6)c4c3)cc2)CC1 , the value recorded as its remaining activity at 0.1 µM is 92.3

Given item COc1ccccc1-c1c[nH]c2ncc(-c3ccc(CN4CCN(C)CC4)cc3)cc12 , the value recorded as its remaining activity at 0.1 µM is 107
